Reference source for all entries: paper PMC4004266

Target: UniProt:Q12SB3
Assay: Steady state fluorescence anisotropy titration of DNGSH
Type: binding, Shewanella denitrificans OS217
metric_name: Kd (µM)
Quick reminder: number only, in µM, skip the unit.

Entry under test: "CN(C)c1cccc2c(S(=O)(=O)NCCCSC[C@H](NC(=O)CC[C@H](N)C(=O)O)C(=O)NCC(=O)O)cccc12" . Its Kd was 8

---

Target: SdKefQCTD (Shewanella denitrificans)
Experiment: Isothermal titration calorimetry (ITC)
Assay type: binding, Shewanella denitrificans OS217
Details: ITC, 25 °C, one-site model; read-out: Kd
Assign Kd to each entry below.
// return numeric value only (unit: µM, not printed)

Field Kd (entry CC(C)(C)N1C(=O)CC(SCC(NC(=O)CCC(N)C(=O)O)C(=O)NCC(=O)O)C1=O (centres unmarked) ) reads 6.7

# Kd (molecule: CCN1C(=O)CC(SCC(NC(=O)CCC(N)C(=O)O)C(=O)NCC(=O)O)C1=O (centres unmarked) [ESG, N-ethylsuccinimido-S-glutathione, reference compound] ) is 23

---

Target: SdKefQCTD (Shewanella denitrificans, UniProt Q12SB3)
Sequence (Q12SB3 entry or part of it): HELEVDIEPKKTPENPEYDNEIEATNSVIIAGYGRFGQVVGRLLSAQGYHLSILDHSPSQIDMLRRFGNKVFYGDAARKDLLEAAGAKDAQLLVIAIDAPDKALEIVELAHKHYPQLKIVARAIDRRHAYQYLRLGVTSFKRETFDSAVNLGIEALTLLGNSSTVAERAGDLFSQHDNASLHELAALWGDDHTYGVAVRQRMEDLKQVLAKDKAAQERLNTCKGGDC
Experiment: Quantitative fluorescence competition experiment using DNGSH as probe (emission peak)
Format: binding, Shewanella denitrificans OS217
metric_name: pKd
Scale: negative log10 of molar concentration, which is what pKd denotes.

Kindly note the recorded pKd for N[C@@H](CCC(=O)N[C@@H](CS)C(=O)NCC(=O)O)C(=O)O [GSH, glutathione, reference compound] , which is 3.05

---

Molecular target: SdKefQCTD (Shewanella denitrificans)
Test: Quantitative fluorescence competition experiment using DNGSH as probe (emission peak)
Assay type: binding, Shewanella denitrificans OS217
Settings: emission peak, competition with DNGSH, sites per subunit
metric_name: no. of sites (n)
Reply with the value as a number alone.

For reference, reported no. of sites (n) for CCN1C(=O)CC(SCC(NC(=O)CCC(N)C(=O)O)C(=O)NCC(=O)O)C1=O (stereo not shown) [ESG, N-ethylsuccinimido-S-glutathione, reference compound] stands at 0.7

Sample CC(C)(C)N1C(=O)CC(SCC(NC(=O)CCC(N)C(=O)O)C(=O)NCC(=O)O)C1=O (stereo not shown) [Compound 5, N-tert-butylsuccinimido-S-glutathione] ; no. of sites (n) observed: 0.7

Summary for this compound, N[C@@H](CCC(=O)N[C@@H](CS)C(=O)NCC(=O)O)C(=O)O [GSH, glutathione, reference compound] : no. of sites (n) is 0.83

Query CCCCCC(=O)CCSC[C@H](NC(=O)CC[C@H](N)C(=O)O)C(=O)NCC(=O)O [Compound 12] yields no. of sites (n) of 0.81

---

Target: SdKefQCTD (Shewanella denitrificans)
Test: Isothermal titration calorimetry (ITC)
Type: binding, Shewanella denitrificans OS217
metric_name: pKd
Notebook: values listed as pKd are -log10 of the concentration (mol/L).

Quick note, pKd for "CN(C)c1cccc2c(S(=O)(=O)NCCCSC[C@H](NC(=O)CC[C@H](N)C(=O)O)C(=O)NCC(=O)O)cccc12" landed at 4.72
